- System: MDA-MB-231
- run description: kynurenine production, fold change vs DMSO IFNg/TNF control; higher = more kynurenine produced (less inhibition)
- cond: pre-treatment time: 18 h then 24 h IFNg/TNF
Provide the reported kynurenine production of each item.
// response body must contain only the number

Lookup: Find kynurenine production (MDA-MB-231) for the entry COC(=O)C1=CO[C@@H](O[C@@H]2O[C@H](CO)[C@@H](O)[C@H](O)[C@H]2O)[C@@H]2[C@H](C)O[C@@H](O)C[C@H]12 [Morroniside] (compound dose: 10 uM)
Found: 1.22

Lookup: Another molecule: CC1(C)CC[C@]2(C(=O)O[C@@H]3O[C@H](CO)[C@@H](O)[C@H](O)[C@H]3O)CC[C@]3(C)C(=CC[C@@H]4[C@@]5(C)CC[C@H](O[C@@H]6O[C@H](C(=O)O)[C@@H](O)[C@H](O)[C@H]6O)C(C)(C)[C@@H]5CC[C@]43C)[C@@H]2C1 [Chikusetsusaponin Iva] (compound dose: 10 uM)
Found: 0.788

Lookup: What do you get for CC(C)=CCC[C@](C)(O[C@@H]1O[C@H](CO[C@@H]2OC[C@@H](O)[C@H](O)[C@H]2O)[C@@H](O)[C@H](O)[C@H]1O)[C@H]1CC[C@]2(C)[C@@H]1[C@H](O)C[C@@H]1[C@@]3(C)CC[C@H](O[C@@H]4O[C@H](CO)[C@@H](O)[C@H](O)[C@H]4O[C@@H]4O[C@H](CO)[C@@H](O)[C@H](O)[C@H]4O)C(C)(C)[C@@H]3CC[C@]12C [Ginsenoside Rb3] (compound dose: 10 uM) ?
Found: 0.73

Lookup: Same question for CC1(C)CC[C@]2(C(=O)O)CC[C@]3(C)C(=CC[C@@H]4[C@@]5(C)CC[C@H](O[C@@H]6O[C@H](C(=O)O)[C@@H](O)[C@H](O)[C@H]6O)C(C)(C)[C@@H]5CC[C@]43C)[C@@H]2C1 [Calenduloside E] (compound dose: 10 uM) please.
Found: 0.962

Lookup: Let us now turn to C=C1CC[C@@H]2[C@](C)(CO)[C@H](O)CC[C@@]2(C)[C@@H]1C/C=C1/C(=O)OC[C@H]1O [Andrographolide] (compound dose: 10 uM)
Found: 0.534
